Kd for assorted binders
# TARGET_DESC: T1, mouse TEAD4(210-427) (mouse, UniProt Q62296 210-427)
# T1 construct: mouse TEAD4, residues 210-427; The tag was cleaved with 3C protease only for the crystallisation; nothing is said for SPR and FP; also called mTEAD4; source: E. coli BL21 DE3 RIL, purified (His Trap, SEC)
# ASSAY_TEXT: SPR; GST-hTEAD1 or mTEAD4 amine-coupled to a CM5 chip (10 mM MES pH 6.4), peptides as analytes; 10 mM HEPES, 150 mM NaCl, 0.05% Tween-20, pH 7.4, 20 °C, 30 µL/min; steady-state fit, 1:1 model
# SETTINGS: both partners purified
Bridge positions count the residues as written; N and C are the ends. Ends that are not written are not given here.
Quick reminder: number only, in nM, skip the unit.

Consider the worked cases shown below.
Ac-SVEAHFAKALGDTWLQIKAA (lactam 3-18, macrocyclic VGL4 two-helix motif 4E with one alanine; numbers count on: mouse VGL4 as in PDB 4LN0; Synthesised on Rink amide resin: C-terminal amide surmised; source: synthetic peptide) [peptide 16 (alanine scan of 4E), acetylated] = 1600
Ac-AVEDHFAKALGDTWLQIKAA (lactam 3-18, macrocyclic VGL4 two-helix motif 4E with one alanine; numbers count on: mouse VGL4 as in PDB 4LN0; Synthesised on Rink amide resin: C-terminal amide surmised; source: synthetic peptide) [peptide 14 (alanine scan of 4E), acetylated] = 2700
Ac-SVEDHFAKALGDTWLAIKAA (lactam 3-18, macrocyclic VGL4 two-helix motif 4E with one alanine; numbers count on: mouse VGL4 as in PDB 4LN0; Synthesised on Rink amide resin: C-terminal amide surmised; source: synthetic peptide) [peptide 25 (alanine scan of 4E), acetylated] = 1300
Ac-SVEDHFAKALGDTWLQAKAA (lactam 3-18, macrocyclic VGL4 two-helix motif 4E with one alanine; numbers count on: mouse VGL4 as in PDB 4LN0; Synthesised on Rink amide resin: C-terminal amide surmised; source: synthetic peptide) [peptide 26 (alanine scan of 4E), acetylated] = 4400

Can you share its Kd? I mean this binder: Ac-SVEDHFAAALGDTWLQIKAA (lactam 3-18, macrocyclic VGL4 two-helix motif 4E with one alanine; numbers count on: mouse VGL4 as in PDB 4LN0; Synthesised on Rink amide resin: C-terminal amide surmised; source: synthetic peptide) [peptide 19 (alanine scan of 4E), acetylated] 2800
